# growth per entry
Test system: TK-10 renal
Test: NCI-60 one-dose screen, 48 h (100 = growth as untreated, 0 = no growth, -100 = all killed)
Conditions: 10 µM unless noted
Compounds without any hit were thinned out: in the full panel of roughly 83,000, 20% have a hit.
Quick reminder: number only, in %, skip the unit.

Examples with their reported growth follow.
* O=C(Nc1cccc2c(O)c(N=Nc3ccc(S(=O)(=O)Nc4nccs4)cc3)cc(N=Nc3ccc(S(=O)(=O)Nc4nccs4)cc3)c12)C(Cl)Cl | 122
* O=C(O)C1CCC(=O)N1C(=O)OCc1ccccc1 (stereo unspecified) | 88.7
* C=C1C(=O)O[C@H]2[C@H]1CC/C(CNC(=O)/C=C/c1ccc(Cl)cc1Cl)=C\CC[C@@]1(C)O[C@@H]21 | -88.8
* CC(C)(C)c1ccc(/C=C/C(=O)Nc2ccc(O)cc2)cc1 | 103
* COc1cccc(-c2nn(-c3ccccc3)cc2-c2ccnc(NCCCNC(=O)c3cccc(C(F)(F)F)c3)c2)c1 | 26.9
* Cc1ccc2nc3ccccc3c(NCc3ccccc3)c2c1 | 75.3
* CCN1C(=O)N(CC)C2Nn3c(s/c(=C\c4ccc(Cl)cc4Cl)c3=O)=NC21 (stereo unspecified) | 15.8
* NC(=S)Nc1cccc(O)c1 | 91.8
* CCN(CC)CCCCCCNc1cc(OC)c(Cl)c2cccnc12 | 85.3
* O=C1Nc2ccccc2/C1=C/c1cn(C(=O)c2c(Cl)cccc2Cl)c2ccccc12 | 90.7

Please report the measured growth for `COc1ccc(OC)c2c1[nH]c(=O)c1c3ncccc3cn21` 38.6

Supply recorded growth for N#CCN1C(=O)C2C3=C(CCCC3)SC2N=C1CN1CCCC1 (stereo unspecified) here. 104

Provide growth value for the following compound: `CCN(CC)CCN1CC(O)=C(c2nc(-c3ccc(Cl)cc3)cs2)C1=N` 89.2

Note down growth recorded for `O=C(COc1ccc(/C=C2\Oc3ccccc3C2=O)cc1)Nc1nc2c(s1)CCCC2` 79.7

Give reported growth value for `O=c1[nH]c2ccccc2n1C1CCN(CCOc2ccccc2)CC1` 98.7

Report measured growth; entry is `COc1cccc(-c2nn(-c3ccccc3)cc2-c2ccnc(NCCNC(=O)c3ccccc3)c2)c1` 90.1

Answer with reported growth of `C#CCOc1nc(C)cc(C)c1C#N` 95.9

Name the recorded growth of the item `Cc1ccc(Cl)cc1NC(=O)c1cc2ccccc2cc1O` in your answer. -1.32

----------
System: HT29 colon
Assay: NCI-60 one-dose screen, 48 h (100 = growth as untreated, 0 = no growth, -100 = all killed)
Conditions: 10 µM unless noted
Method: Growth inhibition of the HT29 human tumor cell line is measured as a screen for anti-cancer activity. Cells are grown in 96 well plates and exposed to the test compound for 48 hours. Compounds are tested at a single concentration, which is 10^-5 M for most compounds. The reported endpoint is percent growth (GI% or GIPRCNT), where numbers from 0 - 100% represent growth inhibition, and numbers from -100% - 0 represent cell death. For example, a value of 40 represents 60% growth inhibition. […]
Compounds without any hit were thinned out: in the full panel of roughly 83,000, 20% have a hit.
Decide using growth: a value greater than or equal to 40% is Met, a smaller one is Not met.

Use these answered entries as a reference point.
• S=C(Cc1ccc2c(c1)CCCC2)N1CCOCC1 = Met
• COc1ccc(NC(=O)CSc2nc(C)c(C(C)=O)n2-c2ccc(Cl)cc2)cc1 = Met
• C(=N\Nc1ncc(-c2cc3cc4c(cc3o2)OCO4)s1)/c1ccco1 = Not met

Item `O=S(=O)(O)c1ccc(N/N=C/c2ccccc2Cl)cc1` with growth of 40% or above? Met

Is the recorded value of growth equal to or greater than 40% for this compound? `O=C(Nc1ccccc1)Nc1cccc(Oc2nnc(Cl)c3ccccc23)c1` Not met

Check this compound for growth at or above 40%: `COc1ccc2c(c1)CCCN2c1c2ccccc2nc2ccccc12` Not met

----------
System: CAKI-1 renal
Assay: NCI-60 one-dose screen, 48 h
Conditions: 10 µM unless noted
The panel holds about 83,000 compounds, 20% with a hit somewhere; the sample as a whole holds those more often. Activity calls are given as the source filed them. How the source made its calls: active means growth percent below 10; inactive means the rest.
Please reply with one of these outcomes: 1.0 (active), 0.0 (inactive)

The examples below pair each entry with its known result.
- CCCCCCCCn1ccc2cc(NC(=O)Cn3cc(CN4CCCC4)nn3)ccc21: 1.0
- NC[C@H](O)c1ccc(O)c(O)c1: 0.0
- CCN(CC)S(=O)(=O)c1cccc(-c2ccc3c(NC(=O)C4CC4)n[nH]c3c2)c1: 0.0

Pending molecule:
Which result was noted for this molecule in the test: `O=C(N=c1oc2ccccc2cc1-c1cc2ccccc2[nH]1)c1ccc(Cl)cc1` 0.0

----------
Entries and their growth
System: SNB-19 CNS
Assay: NCI-60 one-dose screen, 48 h (100 = growth as untreated, 0 = no growth, -100 = all killed)
Conditions: 10 µM unless noted
Compounds without any hit were thinned out: in the full panel of roughly 83,000, 20% have a hit.
# number only, unit % dropped from output

Worked cases, growth given:
- COC(=O)CCC1=C(C)C2=NC1=CC1=NC(=CC3=NC(=Cc4[nH]c(/c(=C(/C)O)c4C)=C2)C(C(C)=O)=C3C)C(C)=C1CCC(=O)OC: 97.3
- O=C1Nc2ccccc2/C1=C/c1cn(C(=O)c2c(Cl)cccc2Cl)c2ccccc12: 68.7
- COC1=C(OC)C(=O)C(OC)=C(OC)C1=O: 99
- O=C(Nc1ccc(-n2cc(-c3ccncc3)c(-c3ccc(Cl)c(O)c3)n2)cc1)N1CCOCC1: 103
- Cc1ccc2nc3ccccc3c(NCc3ccccc3)c2c1: 31.8
- CCSC1=NC2C(N(CC)C(=O)N2CC)N1/N=C/C=C/c1ccccc1[N+](=O)[O-] (stereo not given): 22.1
- COc1cc(N2C(=O)c3nccnc3C2=O)cc(OC)c1OC: 106
- O=[N+]([O-])c1ccc(N2c3ccncc3Sc3ccncc32)cc1: 107
- CC(C)(C)OC(=O)Nc1ccc2c(c1)C(NC(=O)Nc1cccc(C#N)c1)CC(C)(C)O2 (stereo not given): 52.4

Next, consider the following molecule.
Respond only with growth recorded for `CCN(CC)c1ccc(C(=O)c2ccc(N(CC)CC)cc2)cc1` 38.7

----------
Test system: SF-295 CNS
Experiment: NCI-60 one-dose screen, 48 h (100 = growth as untreated, 0 = no growth, -100 = all killed)
Conditions: 10 µM unless noted
About 83,000 compounds went through this panel and 20% of them were active in at least one assay; those are over-represented in the sample as a whole. Calls of active or inactive are those of the source. Rule for the calls: active = growth percent below 10; inactive = the rest.
Listing of entries alongside the reported growth.

• Cc1ccc(Nc2ccc(Nc3ccc(C)cc3)c3c2C(=O)c2cccc(O)c2C3=O)cc1 = 126% (inactive)

# assay system SF-295 CNS: give growth of CC1CC(C(C)(C)C)C(=O)C(C(C)(C)C)C1 (stereo not drawn) 105% (inactive)

Give the observed growth of O=C1Nc2ccc(F)cc2C12Nc1cc(Cl)ccc1S2 (stereo not drawn) for SF-295 CNS. 89.8% (inactive)

----------
System: RPMI-8226 leukemia
Test: NCI-60 one-dose screen, 48 h (100 = growth as untreated, 0 = no growth, -100 = all killed)
Conditions: 10 µM unless noted
The panel holds about 83,000 compounds, 20% with a hit somewhere; the sample as a whole holds those more often.
Mark Y only for growth values smaller than 20%; exact matches and larger values are N.

For orientation, consider the following solved cases.
* C[C@@]1(CCC#N)[C@H]2CC[C@@H]3[C@H]4[C@H](C(=O)/C=C/c5cccnc5)CC[C@]4(C#N)CC[C@@]3(C)[C@]2(C)CC[C@H]1C(=O)/C=C/c1cccnc1 | Y
* CNS(=O)(=O)c1n[nH]nc1-c1cc(C(C)(C)C)c(O)c(C(C)(C)C)c1 | N
* COc1ccc2cc(-c3cc(OC)c(OC)c(OC)c3)c(=O)oc2c1 | N

Given COc1ccc(/C=N/C2=C(C#N)C(c3ccc(OC)cc3)c3ccc4ccccc4c3O2)cc1 (centres undefined) , is recorded growth strictly lower than 20%? N

Find out if reported growth for `O=C(O)c1ccc2c(c1)CCC2` is less than 20% N

----------
Tested on: SW-620 colon
Experiment: NCI-60 one-dose screen, 48 h (100 = growth as untreated, 0 = no growth, -100 = all killed)
Conditions: 10 µM unless noted
This is part of a sample that, as a whole, favours compounds with a hit. Of some 83,000 tested, about 20% had one in any assay.
Value type: growth (%)
# number only, unit % dropped from output

Solved entries:
• COc1cccc(-c2nc3sccn3c2-c2ccnc(NCCNS(=O)(=O)c3ccc(C(F)(F)F)cc3)c2)c1 = 64.9
• C=C1C(=O)O[C@H]2[C@H]1CC/C(COC(=O)C(=O)c1cn(C)c3ccc(OC)cc13)=C\CC[C@@]1(C)O[C@@H]21 = -63.6
• Cc1ccc(C2SCC(=O)N2Cc2ccccc2)cc1 (stereo not drawn) = 107
• Cc1cc(=O)oc2c1ccc1oc(C#N)c(C)c12 = 95.7
• COC(=O)[C@]12CC[C@@H](C)[C@H](C)[C@@H]1C1=CC[C@@H]3[C@@]4(C)C(C=O)=C[C@@](C)(COC(C)=O)[C@@H]4C(=O)C[C@@]3(C)[C@]1(C)CC2 = 29.1
• COc1cc(/C=C/C(=O)c2c(C)nc3ccccc3c2/C=C/c2ccc(C)cc2)cc(OC)c1OC = 3.22
• Cc1ccc(N(C(=O)CCc2c[nH]c3ccccc23)[C@H](C(=O)Nc2ccc(Cl)cc2)c2cccc([N+](=O)[O-])c2)cc1 = 69.1

// below: growth requested for another compound
Query growth for CC1=C(SCCC(=O)OC(C[Se]C2=C(C)C(=O)c3ccccc3C2=O)C(=O)NCCCCCC(=O)OCc2ccccc2)C(=O)c2ccccc2C1=O (stereo not drawn) 45.7
